- assay summary: melting temperature; melt of duplexes
- condition notes: sodium 0.0675 M; strand 1 µM
Please respond with reported Tm for every item in the list.
// units = °C; emit number, no label

Input CGACGTGCCTTATGTGCTG+CAGCACATCAAGCACGTCG ((((((((.(.((((((((+)))))))).).)))))))) . Output Tm: 48.8

Input CGACGTGCGGGATGTGCTG+CAGCACATCTTGCACGTCG ((((((((..(((((((((+)))))))))..)))))))) . Output Tm: 57.3

Input CGACGTGCCACATGTGCTG+CAGCACATCTCGCACGTCG ((((((((.(.((((((((+)))))))).).)))))))) . Output Tm: 46.8

Input CGACGTGCCTTATGTGCTG+CAGCACATGCAGCACGTCG ((((((((...((((((((+))))))))...)))))))) . Output Tm: 49

Input CGACGTGCGGGATGTGCTG+CAGCACATAAGGCACGTCG ((((((((...((((((((+))))))))...)))))))) . Output Tm: 51.1

Input CGACGTGCTCGATGTGCTG+CAGCACATCCGGCACGTCG ((((((((..(((((((((+)))))))))..)))))))) . Output Tm: 53.7

Input CGACGTGCGGCATGTGCTG+CAGCACATATGGCACGTCG ((((((((...((((((((+))))))))...)))))))) . Output Tm: 49.5

Input CGACGTGCCAGATGTGCTG+CAGCACATTCCGCACGTCG ((((((((...((((((((+))))))))...)))))))) . Output Tm: 49.6

Input CGACGTGCGAGATGTGCTG+CAGCACATATCGCACGTCG ((((((((((.((((((((+)))))))).)))))))))) . Output Tm: 60.4

Input CGACGTGCTCGATGTGCTG+CAGCACATCTCGCACGTCG ((((((((..(((((((((+)))))))))..)))))))) . Output Tm: 53.3

----------
- assay summary: melting temperature; melt of duplexes
- condition notes: sodium 0.0675 M; strand 1 µM
property label: Tm (°C)
// units = °C; emit number, no label

Input CGACGTGCGCAATGTGCTG+CAGCACATCCAGCACGTCG ((((((((...((((((((+))))))))...)))))))) . Output Tm: 51.1

Input CGACGTGCTGTATGTGCTG+CAGCACATAATGCACGTCG ((((((((..(((((((((+)))))))))..)))))))) . Output Tm: 51.5

Input CGACGTGCCATATGTGCTG+CAGCACATAAAGCACGTCG ((((((((..(((((((((+)))))))))..)))))))) . Output Tm: 51.3

Input CGACGTGCCGTATGTGCTG+CAGCACATACTGCACGTCG ((((((((.((((((((((+)))))))))).)))))))) . Output Tm: 56.9

Input CGACGTGCACAATGTGCTG+CAGCACATATCGCACGTCG ((((((((...((((((((+))))))))...)))))))) . Output Tm: 44.6

Input CGACGTGCCTTATGTGCTG+CAGCACATAGAGCACGTCG ((((((((..(((((((((+)))))))))..)))))))) . Output Tm: 51.8

Input CGACGTGCTCTATGTGCTG+CAGCACATCGTGCACGTCG ((((((((.(.((((((((+)))))))).).)))))))) . Output Tm: 45.2

Input CGACGTGCCGTATGTGCTG+CAGCACATGAGGCACGTCG (((((((((..((((((((+))))))))..))))))))) . Output Tm: 58.7

Source listed as the array DNA melting data of Ke et al..
